target: HLA class I molecule B*0702 (Homo sapiens); construct: purchased ProImmune Ltd., Oxford, UK; assay: REVEAL HLA-peptide binding assay, B*0702; design: concentration or dose not given beside the values; conditions: assembly of peptide-HLA complex by ELISA with conformation-dependent anti-HLA antibody, relative to positive control peptide for that allele, comparable within an allele only
measured-parameter: Score (experimentally measured binding affinity, % binding compared to control peptide) (%)

1) IQYSSFHSL [HTLV-1 nonamer peptide] :: 2.94
2) AVLDGLLSL [HTLV-1 nonamer peptide] :: 18.76
3) AAHHWLNFL [HTLV-1 nonamer peptide] :: 27.59
